# Species: Rattus norvegicus
# METHOD: DrugMatrix - Regimen: Daily Repeat
# Type: toxicity, organism-based, Sprague-Dawley
# Set-up: regimen Daily Repeat, gender Male, age 6-8 weeks
# MEASUREMENT PARAMETERS: in vivo, po, 0 mg/kg, 72 h, tissue Blood, route oral GAVAGE, dose level Control, time 3 day, vehicle 100 % WATER
ASSAY METRIC: LEUKOCYTE COUNT (x10E3/uL)
Answers are plain numbers, in x10E3/uL.

Completed entries (count: 3):
[[record]]
molecule = "Nc1ccc(S(=O)(=O)Nc2ccnn2-c2ccccc2)cc1 [SULFAPHENAZOLE]"
measured_number = 13.85

[[record]]
molecule = "C[C@]12Cc3c[nH]nc3C[C@@H]1CC[C@@H]1[C@@H]2CC[C@@]2(C)[C@H]1CC[C@]2(C)O [STANOZOLOL]"
measured_number = 10.2

[[record]]
molecule = "CC(C)(S)[C@@H](N)C(=O)O [PENICILLAMINE]"
measured_number = 8.43


Provide LEUKOCYTE COUNT values for the following items, in order.
1. COc1cccc(C2(O)CCCCC2CN(C)C)c1 (stereo not given) [TRAMADOL]
2. COc1ccc(C(CN(C)C)C2(O)CCCCC2)cc1 (stereo not given) [VENLAFAXINE]

10.2
14.32

----------
So I've got a bunch of molecules here, and I need their MONOCYTE values.
# Species on record: Rattus norvegicus
# METHOD: DrugMatrix - Regimen: Daily Repeat
# Assay type: toxicity, organism-based, Sprague-Dawley
# Set-up: regimen Daily Repeat, gender Male, age 6-8 weeks
# MEASUREMENT PARAMETERS: in vivo, po, 0 mg/kg, 120 h, tissue Blood, route oral GAVAGE, dose level Control, time 5 day, vehicle .5 % CMC
Numbers only, in %.

[[record]]
molecule = "Cc1c(-c2ccccc2)oc2c(C(=O)OCCN3CCCCC3)cccc2c1=O [FLAVOXATE]"
unit_tag = "%"
measured_number = 1.17

[[record]]
molecule = "CC[C@H]1OC(=O)[C@H](C)[C@@H](O[C@H]2C[C@@](C)(OC)[C@@H](O)[C@H](C)O2)[C@H](C)[C@@H](O[C@@H]2O[C@H](C)C[C@H](N(C)C)[C@H]2O)[C@](C)(O)C[C@@H](C)/C(=N\\OCOCCOC)[C@H](C)[C@@H](O)[C@]1(C)O"
unit_tag = "%"
measured_number = 2.37

[[record]]
molecule = "CC1(C)[C@H]2CC[C@]1(C)C(=O)C2 [(-)-CAMPHOR]"
unit_tag = "%"
measured_number = 0.17


Provide MONOCYTE values for the following items, in order.
1. COc1c(C)c2c(c(O)c1C/C=C(\C)CCC(=O)OCCN1CCOCC1)C(=O)OC2 [MYCOPHENOLATE MOFETIL]
2. O=c1cc(-c2ccccc2)oc2c1ccc1ccccc12

1. 1.83
2. 2

Provide MONOCYTE values for the following items, in order.
1. CCC[C@@H]1C[C@@H](C(=O)N[C@@H]([C@H]2O[C@H](SC)[C@H](O)[C@@H](O)[C@H]2O)[C@@H](C)O)N(C)C1
2. CN1C(C(=O)Nc2ccccn2)=C(O)c2ccccc2S1(=O)=O
3. COC(=O)c1ccc(O)cc1

0.17
4.33
0.33

Give the reported MONOCYTE for this molecule. `CC(/C=C1\SC(=S)N(CC(=O)O)C1=O)=C\c1ccccc1` 1.83

----------
# Species on record: Rattus norvegicus
# METHOD: DrugMatrix - Regimen: Daily Repeat
# Format: toxicity, organism-based, Sprague-Dawley
# Set-up: regimen Daily Repeat, gender Male, age 6-8 weeks
# MEASUREMENT PARAMETERS: in vivo, po, 10 mg/kg, 72 h, tissue Blood, route oral GAVAGE, dose level Low, time 3 day, vehicle .5 % CMC
ASSAY METRIC: ABSOLUTE MONOCYTE (CELLS/uL)
Answers are plain numbers, in CELLS/uL.

Completed entries (count: 3):
[[record]]
compound = "CC(=O)O[C@]1(C(C)=O)CC[C@H]2[C@@H]3C=C(Cl)C4=CC(=O)CC[C@]4(C)[C@H]3CC[C@@]21C [CHLORMADINONE ACETATE]"
assay_metric = "ABSOLUTE MONOCYTE"
measured_number = 59.67

[[record]]
compound = "O=C1CN=C(c2ccccc2)c2cc([N+](=O)[O-])ccc2N1"
assay_metric = "ABSOLUTE MONOCYTE"
measured_number = 19

[[record]]
compound = "NS(=O)(=O)c1cc2c(cc1Cl)NCNS2(=O)=O [HYDROCHLOROTHIAZIDE]"
assay_metric = "ABSOLUTE MONOCYTE"
measured_number = 107.67


Now let's try a different one.
Give the reported ABSOLUTE MONOCYTE for this compound. COc1c(C)c2c(c(O)c1C/C=C(\C)CCC(=O)OCCN1CCOCC1)C(=O)OC2 [MYCOPHENOLATE MOFETIL] 38.33

----------
# Organism: Rattus norvegicus
# METHOD: DrugMatrix - Regimen: Daily Repeat
# Format: toxicity, organism-based, Sprague-Dawley
# Set-up: regimen Daily Repeat, gender Male, age 6-8 weeks
# MEASUREMENT PARAMETERS: in vivo, po, 80 mg/kg, […], tissue Blood, route oral GAVAGE, dose level High, time 28 day, vehicle .5 % CMC
ASSAY METRIC: ABSOLUTE EOSINOPHIL

Give the reported ABSOLUTE EOSINOPHIL for this compound. O=c1cc(-c2ccccc2)oc2c1ccc1ccccc12 [ALPHA-NAPHTHOFLAVONE] 76 cells/µL

----------
# Species on record: Rattus norvegicus
# METHOD: DrugMatrix - Regimen: Daily Repeat
# Format: toxicity, organism-based, Sprague-Dawley
# Parameters: regimen Daily Repeat, gender Male, age 6-8 weeks
# MEASUREMENT PARAMETERS: in vivo, ip, 5 mg/kg, 120 h, tissue Blood, route intraperitoneal, dose level High, time 5 day, vehicle 100 % SALINE
ASSAY METRIC: ABSOLUTE SEGMENTED NEUTROPHIL (cells/µL)
Answers are plain numbers, in cells/µL.

Give the reported ABSOLUTE SEGMENTED NEUTROPHIL for this sequence. `CARBOPLATIN` 520

----------
# Species: Rattus norvegicus
# METHOD: DrugMatrix - Regimen: Daily Repeat
# Format: toxicity, organism-based, Sprague-Dawley
# Set-up: regimen Daily Repeat, gender Male, age 6-8 weeks
# MEASUREMENT PARAMETERS: in vivo, po, 80 mg/kg, 120 h, tissue Blood, route oral GAVAGE, dose level High, time 5 day, vehicle .5 % CMC
ASSAY METRIC: ABSOLUTE BASOPHIL

Give the reported ABSOLUTE BASOPHIL for this compound. `O=c1cc(-c2ccccc2)oc2c1ccc1ccccc12` 170 cells/µL

----------
# Organism: Rattus norvegicus
# METHOD: DrugMatrix - Regimen: Daily Repeat
# Format: toxicity, organism-based, Sprague-Dawley
# Parameters: regimen Daily Repeat, gender Male, age 6-8 weeks
# MEASUREMENT PARAMETERS: in vivo, po, 0 mg/kg, 72 h, tissue Plasma, route oral GAVAGE, dose level Control, time 3 day, vehicle 100 % WATER
ASSAY METRIC: ASPARTATE AMINOTRANSFERASE (u/L)
Numbers only, in u/L.

Completed entries (count: 5):
[[record]]
compound = "NC(=O)c1ncn([C@@H]2O[C@H](CO)[C@@H](O)[C@H]2O)n1"
assay_metric = "ASPARTATE AMINOTRANSFERASE"
measured_number = 89

[[record]]
compound = "CC1(C)S[C@@H]2[C@H](NC(=O)[C@H](N)c3ccc(O)cc3)C(=O)N2[C@H]1C(=O)O"
assay_metric = "ASPARTATE AMINOTRANSFERASE"
measured_number = 89.17

[[record]]
compound = "Fc1ccc([C@@H]2CCNC[C@H]2COc2ccc3c(c2)OCO3)cc1"
assay_metric = "ASPARTATE AMINOTRANSFERASE"
measured_number = 84

[[record]]
compound = "NNC(=O)c1ccncc1"
assay_metric = "ASPARTATE AMINOTRANSFERASE"
measured_number = 92.33

[[record]]
compound = "CC(CCc1ccccc1)NCC(O)c1ccc(O)c(C(N)=O)c1 (stereo unspecified)"
assay_metric = "ASPARTATE AMINOTRANSFERASE"
measured_number = 82.17


Provide ASPARTATE AMINOTRANSFERASE values for the following items, in order.
1. COc1ccc(C(CN(C)C)C2(O)CCCCC2)cc1 (stereo unspecified)
2. COc1cccc(C2(O)CCCCC2CN(C)C)c1 (stereo unspecified)

82.83
84

Provide ASPARTATE AMINOTRANSFERASE values for the following items, in order.
1. CC1COc2c(N3CCN(C)CC3)c(F)cc3c(=O)c(C(=O)O)cn1c23 (stereo unspecified)
2. CNCCC=C1c2ccccc2CCc2ccccc21
3. Nc1ccc(S(=O)(=O)Nc2ccnn2-c2ccccc2)cc1

118
77.33
103.17

Give the reported ASPARTATE AMINOTRANSFERASE for this compound. `CN1CCC[C@H]1c1cccnc1` 118
